biological target: Glycogen synthase kinase-3 beta (Homo sapiens); conditions: ReNcell VM, at 3 µM
Sequence (P49841 whole entry, looked up): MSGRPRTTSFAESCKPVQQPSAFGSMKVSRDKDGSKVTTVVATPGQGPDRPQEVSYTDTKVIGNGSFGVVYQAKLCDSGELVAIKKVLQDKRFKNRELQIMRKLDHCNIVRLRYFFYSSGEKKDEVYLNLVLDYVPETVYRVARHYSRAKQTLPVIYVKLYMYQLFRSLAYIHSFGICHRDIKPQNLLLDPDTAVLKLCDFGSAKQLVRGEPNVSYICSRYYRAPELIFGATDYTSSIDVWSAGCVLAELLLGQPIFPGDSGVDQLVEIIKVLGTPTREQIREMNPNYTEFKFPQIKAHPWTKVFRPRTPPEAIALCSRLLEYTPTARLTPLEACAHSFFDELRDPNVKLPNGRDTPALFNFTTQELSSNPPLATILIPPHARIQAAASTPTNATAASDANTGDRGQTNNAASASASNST
Calls of active or inactive are those of the source. The calls are words filed in the database; no cut-off is given here.
measured.property: inhibition

CN1C(=O)C(NCCc2ccc(F)cc2)=C(c2c[nH]c3ccccc23)C1=O : inactive
Cc1[nH]c2ccccc2c1C1=C(NCCc2ccc(O)cc2)C(=O)N(C)C1=O : inactive
CCOC(=O)C1=C(c2c(C)[nH]c3ccccc23)C(=O)N(C)C1=O : inactive
